# TARGET OR SYSTEM: T1, human TNFR1 (human, UniProt P19438)
# T1 chain: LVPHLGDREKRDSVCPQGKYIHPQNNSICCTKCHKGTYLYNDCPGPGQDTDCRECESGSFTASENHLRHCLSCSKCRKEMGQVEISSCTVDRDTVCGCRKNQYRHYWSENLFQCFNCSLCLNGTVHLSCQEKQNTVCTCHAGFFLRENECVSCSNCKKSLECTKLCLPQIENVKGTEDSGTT
# METHOD DESCRIPTION: ELISA
QUANTITY NAME: EC50 (nM)

I. DOM1H-131-206 P14A + C-terminal ASTKG (antibody, V domains shown) VH: EVQLLESGGGLVQAGGSLRLSCAASGFTFAHETMVWVRQAPGKGLEWVSHIPPDGQDPFYADSVKGRFTISRDNSKNTLYLQMNSLRAEDTAVYHCALLPKRGPWFDYWGQGTLVTVSS
II. DOM1H-131-206 P14A + C-terminal A (antibody, V domains shown) VH: EVQLLESGGGLVQAGGSLRLSCAASGFTFAHETMVWVRQAPGKGLEWVSHIPPDGQDPFYADSVKGRFTISRDNSKNTLYLQMNSLRAEDTAVYHCALLPKRGPWFDYWGQGTLVTVSS
Of I and II , whose reported EC50 is the larger number? Reply briefly: the label of your chosen item. I
